biological target: T1, CD47 (UniProt Q08722 19-323, limits assumed); experiment: Microscale thermophoresis (MST); NT-647-labelled Jurkat or MEC-1 cell membrane preparation held constant, peptide titrated; linear peptide PKT16, FIG. 5
T1 construct: whole, on cells; The assay used a labelled whole membrane preparation from Jurkat or MEC-1 cells, not purified CD47; also called CD47 receptor
T1 sequence (Q08722 19-323 limits assumed): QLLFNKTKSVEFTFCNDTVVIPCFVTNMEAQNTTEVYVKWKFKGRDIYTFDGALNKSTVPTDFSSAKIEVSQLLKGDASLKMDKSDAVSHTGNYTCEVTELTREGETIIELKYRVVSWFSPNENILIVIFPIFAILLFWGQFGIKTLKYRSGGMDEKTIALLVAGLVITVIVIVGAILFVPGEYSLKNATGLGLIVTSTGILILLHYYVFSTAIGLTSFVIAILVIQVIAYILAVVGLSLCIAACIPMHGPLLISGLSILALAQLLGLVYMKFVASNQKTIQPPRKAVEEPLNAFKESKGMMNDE
Non-standard residues stand in square brackets, D forms with d. No end group written: not given here. NMeR = CN[C@@H](CCCNC(=N)N)C(=O)O; Nle = CCCC[C@H](N)C(=O)O
RECORDED ENDPOINT: pKd
The value called pKd is obtained by taking minus log10 of the concentration in mol/L.

## Input For the binder shown here, [dK][NMeR]FYVV[Nle]WK[dK] (also called linear PKT16 peptide) [PKT16 [(D)Lys-(N-Me)Arg-Phe-Tyr-Val-Val-Nle-Trp-Lys-(D)Lys]] , give the reported pKd.
## Output 5.80
